System: Fibroblast
Assay Text: Multiplex assay against human fibroblast
Type: toxicity, cell-based
Test Settings: 12 h, 10 µM, compound concentration 10 uM, replicate 1
Catalogue of Population Tubulin-Different-Phenotype (%) values
Observable: Population Tubulin-Different-Phenotype (%)

1) Cc1cccc(CN2CCN(C(c3ccccc3)c3ccc(Cl)cc3)CC2)c1.Cl.Cl (centres undefined) :: 90
2) CC(C)NC(=O)N1CC[C@H](NC2=Nc3cc(F)ccc3N(CC(F)F)c3ccc(Cl)cc32)C1 :: 89
3) O=C(c1cc2c(cc1F)OC(c1ccc(F)cc1)(c1ccc(Cl)cc1Cl)O2)N1CCOCC1 (centres undefined) :: 17
4) CCCSc1nc(N[C@@H]2C[C@H]2c2ccc(F)c(F)c2)c2nnn([C@@H]3C[C@H](OCCO)[C@@H](O)[C@H]3O)c2n1 :: 90

====

System: Fibroblast
Assay Text: Multiplex assay against human fibroblast
Format: toxicity, cell-based
Test Settings: 24 h, 10 µM, compound concentration 10 uM, replicate 1
Catalogue of Population Membrane Permeable-Phenotype (%) values
Observable: Population Membrane Permeable-Phenotype (%)

1) CNC(=O)Nc1ccc2c(c1)[C@@]1(CC2)OC(=O)N(CC(=O)N(Cc2ccc(F)cc2)[C@@H](C)C(F)(F)F)C1=O [A-486] :: 12
2) Cc1c[nH]c2nccc(Oc3c(F)cc(Nc4cc(Cl)nc(N)n4)cc3F)c12 [BAY-549] :: 13
3) Cc1ccc2c(c1)c1c(n2CCc2ccc(C)nc2)CCN(C)C1 [LATREPIRDINE] :: 10
4) C=CC(=O)Nc1ccc2[nH]c(=O)n(C3CCN(Cc4ccc(-c5nc6cc[nH]c(=O)c6cc5-c5ccccc5)cc4)CC3)c2c1 [Borussertib] :: 2
5) CN(c1ccccc1CNc1nc(Nc2ccc3c(c2)CC(=O)N3)ncc1C(F)(F)F)S(C)(=O)=O :: 11
6) O=C(c1cc2c(cc1F)OC(c1ccc(F)cc1)(c1ccc(Cl)cc1Cl)O2)N1CCOCC1 (centres undefined) :: 2
7) CCc1nn(CCCN2CCN(c3cccc(Cl)c3)CC2)c(=O)n1CCOc1ccccc1.Cl [NEFAZODONE HYDROCHLORIDE] :: 3
8) COc1cc(Nc2nccc(-c3cnn4nc(OC)ccc34)n2)cc(C(F)(F)F)c1 :: 23
9) COc1ccc(-c2ccc3ncc4c(c3c2)n(-c2ccc(N3CCNCC3)c(C(F)(F)F)c2)c(=O)n4C)cn1.O=C(O)/C=C\C(=O)O [BGT-226] :: 38

====

Catalogue of Population Mitochondria Different-Phenotype (%) values
Test system: Fibroblast
Assay Text: Multiplex assay against human fibroblast
Assay type: toxicity, cell-based
Test Settings: 48 h, 10 µM, compound concentration 10 uM, replicate 2
Observable: Population Mitochondria Different-Phenotype (%)

1) CC(C)c1noc(N2CCC(COc3ccc(-c4ccc(S(C)(=O)=O)cc4)nc3)CC2)n1 :: 0%
2) CC1=C(C(=O)Nc2cc3cn[nH]c3cc2F)C(c2ccc(C(F)(F)F)cc2)CC(=O)N1 (stereo not drawn) :: 1%
3) O=C(c1cc2c(cc1F)OC(c1ccc(F)cc1)(c1ccc(Cl)cc1Cl)O2)N1CCOCC1 (stereo not drawn) :: 90%
4) CCCSc1nc(N[C@@H]2C[C@H]2c2ccc(F)c(F)c2)c2nnn([C@@H]3C[C@H](OCCO)[C@@H](O)[C@H]3O)c2n1 :: 84%
5) CC(C)Oc1ccccc1C(=O)Nc1ccccc1C(=O)Nc1cccc(S(=O)(=O)C(F)(F)F)c1 :: 65%
6) CC(C)NC(=O)N1CC[C@H](NC2=Nc3cc(F)ccc3N(CC(F)F)c3ccc(Cl)cc32)C1 :: 1%
7) COc1cc(Nc2nccc(-c3cnn4nc(OC)ccc34)n2)cc(C(F)(F)F)c1 :: 8%
8) C#Cc1cccc(Nc2ncnc3cc(OCCOC)c(OCCOC)cc23)c1 :: 19%
